Can you tell me Relative potency to sitagliptin (OGTT AUC) for the items I'm about to list?
# Test system: 14 h overnight fasted diabetic mice
# assay_method_text: Oral glucose tolerance test (OGTT) after single dose
# Assay type: in vivo
# test_parameters: single oral dose 50 mg/kg
One number for each entry.

{"compound": "O=C(NCC(=O)N1CCn2c(nnc2C(F)(F)F)C1)c1cccc(Cl)c1", "reported_measurement": 1.2}
{"compound": "N[C@@H](CC(=O)N1CCn2c(nnc2C(F)(F)F)C1)Cc1cc(F)c(F)cc1F [Sitagliptin, sitagliptin, reference compound]", "reported_measurement": 1}
{"compound": "O=C(CN1CCn2c(nnc2C(F)(F)F)C1)NC1CCCCC1", "reported_measurement": 0.69}

**Q:** Give the reported value of Relative potency to sitagliptin (OGTT AUC) for this record: "C[C@H](NC(=O)c1cccc(Cl)c1)C(=O)N1CCn2c(nnc2C(F)(F)F)C1"
**A:** 1.32

----------
# study_target: UniProt P27487
# Sequence (P27487 whole entry, species assumed): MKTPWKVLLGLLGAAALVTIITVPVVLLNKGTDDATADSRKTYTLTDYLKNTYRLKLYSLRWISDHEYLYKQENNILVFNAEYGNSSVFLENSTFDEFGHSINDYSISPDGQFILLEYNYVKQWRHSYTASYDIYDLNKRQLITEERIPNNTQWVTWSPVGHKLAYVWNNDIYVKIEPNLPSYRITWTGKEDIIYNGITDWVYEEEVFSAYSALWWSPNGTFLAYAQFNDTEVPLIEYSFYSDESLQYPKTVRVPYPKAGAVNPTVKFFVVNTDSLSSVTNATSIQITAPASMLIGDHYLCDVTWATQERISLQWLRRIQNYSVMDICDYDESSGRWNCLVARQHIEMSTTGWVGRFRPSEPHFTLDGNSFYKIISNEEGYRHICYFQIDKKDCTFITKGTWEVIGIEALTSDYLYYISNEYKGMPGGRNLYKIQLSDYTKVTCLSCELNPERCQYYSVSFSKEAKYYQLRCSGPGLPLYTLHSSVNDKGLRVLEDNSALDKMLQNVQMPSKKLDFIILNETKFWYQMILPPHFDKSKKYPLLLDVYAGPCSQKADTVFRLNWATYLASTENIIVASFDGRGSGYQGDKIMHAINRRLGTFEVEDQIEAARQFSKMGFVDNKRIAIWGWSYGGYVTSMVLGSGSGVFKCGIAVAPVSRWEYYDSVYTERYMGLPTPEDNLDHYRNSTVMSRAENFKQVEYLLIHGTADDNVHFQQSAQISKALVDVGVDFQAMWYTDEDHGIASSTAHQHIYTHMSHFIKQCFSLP
# assay_method_text: DPP-IV inhibition assay (Biovision kit, fluorescence)
# Type: biochemical
# test_parameters: read-out: IC50 (DPP4 inhibition)
assay_metric: pIC50
Give bare numbers, as −log10 of the molar value.

{"smiles_entry": "N#Cc1cccc(NC(=O)CN2CCn3c(nnc3C(F)(F)F)C2)c1", "pIC50": 9.74}

Next:
**Q:** Input "C[C@H](NC(=O)c1cccc(Cl)c1)C(=O)N1CCn2c(nnc2C(F)(F)F)C1" , output reported pIC50.
**A:** 9.68

----------
# System: 14 h overnight fasted diabetic mice
# assay_method_text: Oral glucose tolerance test (OGTT) after single dose
# Assay type: in vivo
# test_parameters: single oral dose 50 mg/kg
assay_metric: Relative potency to sitagliptin (OGTT AUC)

Recorded results for 2 molecules are shown here.
{"molecule": "O=C(NCC(=O)N1CCn2c(nnc2C(F)(F)F)C1)c1ccc(Cl)cc1 [GLP-131]", "reported_measurement": 1.52}
{"molecule": "N#Cc1cccc(NC(=O)CN2CCn3c(nnc3C(F)(F)F)C2)c1 [GLP-142]", "reported_measurement": 0.76}

# ---- query molecule ----
**Q:** Kindly indicate its recorded Relative potency to sitagliptin (OGTT AUC). Item: O=C(NCCC(=O)N1CCn2c(nnc2C(F)(F)F)C1)c1cccc(Cl)c1 [GLP-129]
**A:** 0.45

----------
# System: overnight fasted diabetic mice
# assay_method_text: OGTT after multiple doses (6 consecutive days)
# Format: in vivo
# test_parameters: 50 mg/kg oral for six days, 2 h before glucose loading; AUC 0-120 min
assay_metric: AUC in OGTT, X (arithmetic mean) (mg·min/dL)
Answers are plain numbers, in mg·min/dL.

Use the examples below as a reference point.
{"compound": "N[C@@H](CC(=O)N1CCn2c(nnc2C(F)(F)F)C1)Cc1cc(F)c(F)cc1F [Sitagliptin, sitagliptin, reference compound]", "assay_metric": "AUC in OGTT, X (arithmetic mean)", "reported_measurement": 32723}
{"compound": "O=C(NCCC(=O)N1CCn2c(nnc2C(F)(F)F)C1)c1cccc(Cl)c1", "assay_metric": "AUC in OGTT, X (arithmetic mean)", "reported_measurement": 46458}

Next item in the queue.
**Q:** Find the measured AUC in OGTT, X (arithmetic mean) of "O=C(NCC(=O)N1CCn2c(nnc2C(F)(F)F)C1)c1cccc(Cl)c1" and report it.
**A:** 46368

----------
# Tested on: 14 h overnight-fasted diabetic mice
# assay_method_text: Blood glucose after introduction of food for one hour (meal tolerance test)
# Assay type: in vivo
# test_parameters: Day 1; 50 mg/kg oral, 3 hr pretreated
assay_metric: Area under the curve AUC(0-180) after meal feeding

{"compound": "N[C@@H](CC(=O)N1CCn2c(nnc2C(F)(F)F)C1)Cc1cc(F)c(F)cc1F [Sitagliptin, sitagliptin, reference compound]", "reported_measurement": "51776 ± mg · dL^−1 · min"}

Each compound below has a reported value. Please supply its Area under the curve AUC(0-180) after meal feeding.
1. O=C(NCCC(=O)N1CCn2c(nnc2C(F)(F)F)C1)c1cccc(Cl)c1
2. O=C(NCC(=O)N1CCn2c(nnc2C(F)(F)F)C1)c1ccc(Cl)cc1

**A:**
1. 73248 ± mg · dL^−1 · min
2. 56340 ± mg · dL^−1 · min

Batch: Area under the curve AUC(0-180) after meal feeding for all items listed.
1. C[C@H](NC(=O)c1cccc(Cl)c1)C(=O)N1CCn2c(nnc2C(F)(F)F)C1
2. O=C(NCC(=O)N1CCn2c(nnc2C(F)(F)F)C1)c1cccc(Cl)c1
3. O=C(CN1CCn2c(nnc2C(F)(F)F)C1)NC1CCCCC1

**A:**
1. 50478 ± mg · dL^−1 · min
2. 69336 ± mg · dL^−1 · min
3. 72873 ± mg · dL^−1 · min

----------
# Test system: overnight fasted diabetic mice
# assay_method_text: OGTT after multiple doses (6 consecutive days)
# Format: in vivo
# test_parameters: 50 mg/kg oral for six days, 2 h before glucose loading; AUC 0-120 min
Marks after values point to notes of the source that are not given here.
assay_metric: AUC in OGTT, X (arithmetic mean)

{"compound": "C[C@H](NC(=O)c1cccc(Cl)c1)C(=O)N1CCn2c(nnc2C(F)(F)F)C1 [GLP-130]", "study_target": "overnight fasted diabetic mice", "AUC in OGTT, X (arithmetic mean)": "34672* mg · dL^−1 · min"}
{"compound": "O=C(NCC(=O)N1CCn2c(nnc2C(F)(F)F)C1)c1ccc(Cl)cc1 [GLP-131]", "study_target": "overnight fasted diabetic mice", "AUC in OGTT, X (arithmetic mean)": "26542* mg · dL^−1 · min"}
{"compound": "N#Cc1cccc(NC(=O)CN2CCn3c(nnc3C(F)(F)F)C2)c1 [GLP-142]", "study_target": "overnight fasted diabetic mice", "AUC in OGTT, X (arithmetic mean)": "42439* mg · dL^−1 · min"}

From here, focus on the item given below.
**Q:** Give measured AUC in OGTT, X (arithmetic mean) for O=C(CN1CCn2c(nnc2C(F)(F)F)C1)NC1CCCCC1 [GLP-140] (overnight fasted diabetic mice).
**A:** 32475* mg · dL^−1 · min
